Measured kinase still bound, per cent of control of individual entries
biological target: EPHA6 (human) (UniProt Q9UF33); experiment: KINOMEscan competition binding; conditions: compound 10.0 µM
Sequence (Q9UF33 whole entry, looked up): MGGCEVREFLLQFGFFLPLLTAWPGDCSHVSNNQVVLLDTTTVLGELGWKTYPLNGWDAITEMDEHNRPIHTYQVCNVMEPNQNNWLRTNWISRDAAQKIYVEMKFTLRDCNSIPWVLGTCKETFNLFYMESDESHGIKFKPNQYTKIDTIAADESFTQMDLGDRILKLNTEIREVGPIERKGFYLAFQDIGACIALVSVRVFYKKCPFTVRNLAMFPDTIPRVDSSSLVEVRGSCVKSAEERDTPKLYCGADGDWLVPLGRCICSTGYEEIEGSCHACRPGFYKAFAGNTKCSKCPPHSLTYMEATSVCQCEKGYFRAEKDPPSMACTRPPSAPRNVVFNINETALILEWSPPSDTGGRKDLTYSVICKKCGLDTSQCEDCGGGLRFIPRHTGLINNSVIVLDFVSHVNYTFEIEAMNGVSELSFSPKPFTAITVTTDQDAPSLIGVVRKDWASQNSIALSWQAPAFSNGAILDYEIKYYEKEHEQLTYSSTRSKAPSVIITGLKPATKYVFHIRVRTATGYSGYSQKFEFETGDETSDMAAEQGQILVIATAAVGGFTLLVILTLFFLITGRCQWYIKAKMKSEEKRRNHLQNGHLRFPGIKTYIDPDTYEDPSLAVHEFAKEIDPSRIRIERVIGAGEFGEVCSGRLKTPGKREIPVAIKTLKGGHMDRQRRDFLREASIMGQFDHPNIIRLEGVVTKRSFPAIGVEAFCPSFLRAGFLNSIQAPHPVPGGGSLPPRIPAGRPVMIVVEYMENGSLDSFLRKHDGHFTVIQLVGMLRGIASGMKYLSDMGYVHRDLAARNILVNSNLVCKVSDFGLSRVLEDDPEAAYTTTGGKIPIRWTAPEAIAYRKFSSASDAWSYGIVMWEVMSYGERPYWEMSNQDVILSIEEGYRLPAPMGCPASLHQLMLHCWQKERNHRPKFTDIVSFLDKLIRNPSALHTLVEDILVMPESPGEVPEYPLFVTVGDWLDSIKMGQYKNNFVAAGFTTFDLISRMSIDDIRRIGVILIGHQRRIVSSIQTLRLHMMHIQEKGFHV

Molecule | Unit Of Measurement | kinase still bound, per cent of control
COc1cc(C(=O)NC2CCN(C)CC2)ccc1Nc1ncc2c(n1)N(C1CCCC1)CCC(=O)N2C(C)C | % | 100
N#Cc1c(NC(=O)c2cccc3ccccc23)sc2c1CCCC2 | % | 94
O=C1Nc2ccc(I)cc2/C1=C/c1cc(Br)c(O)c(Br)c1 | % | 100
CCN1CCN(Cc2ccc(Nc3ncc4c(n3)N(C)c3ccccc3C(=O)N4C)cc2C(F)(F)F)CC1 | % | 90
Cc1ccc(C(=O)Nc2cccc(C(F)(F)F)c2)cc1Nc1cncc(C(N)=O)c1 | % | 100
CC[C@@H]1C(=O)N(C)c2cnc(Nc3ccc(C(=O)NC4CCN(C)CC4)cc3OC)nc2N1C1CCCC1 | % | 100
Nc1ccc(-c2ccc3ncc4ccc(=O)n(-c5cccc(C(F)(F)F)c5)c4c3c2)cn1 | % | 100
COc1cc(C(=O)NC2CCN(C)CC2)ccc1Nc1ncc2c(n1)N(C1CCCC1)C(C)CC(=O)N2C (centres undefined) | % | 100
O=C(NOC[C@H](O)CO)c1ccc(F)c(F)c1Nc1ccc(I)cc1F | % | 94

* * *

biological target: PIM3 (human); assay: KINOMEscan competition binding; conditions: compound 10.0 µM
// classify: if (kinase still bound, per cent of control < 90%) met else not met

Molecule | System Under Test | Assigned Label
C=CC(=O)Nc1cccc(Oc2nc(Nc3ccc(N4CCN(C)CC4)cc3OC)ncc2Cl)c1 | PIM3 (human) | not met
COc1cc(C(=O)NC2CCN(C)CC2)ccc1Nc1ncc2c(n1)N(C1CCCC1)C(C)CC(=O)N2C (stereo unspecified) | PIM3 (human) | not met
Cc1ccc(NC(=O)c2cccc(C(C)(C)C#N)c2)cc1Nc1ccc2ncn(C)c(=O)c2c1 | PIM3 (human) | not met
C[C@@H](Oc1cc(-n2cnc3ccc(CN4CCN(C)CC4)cc32)sc1C(N)=O)c1ccccc1C(F)(F)F | PIM3 (human) | met
C=CC(=O)Nc1cccc(Nc2nc(N[C@H]3CC[C@H](N(C)C)CC3)nc3c2ncn3C(C)C)c1 | PIM3 (human) | met

* * *

target: UniProt O14757; assay: KINOMEscan competition binding; conditions: compound 10.0 µM
Sequence (O14757 whole entry, looked up): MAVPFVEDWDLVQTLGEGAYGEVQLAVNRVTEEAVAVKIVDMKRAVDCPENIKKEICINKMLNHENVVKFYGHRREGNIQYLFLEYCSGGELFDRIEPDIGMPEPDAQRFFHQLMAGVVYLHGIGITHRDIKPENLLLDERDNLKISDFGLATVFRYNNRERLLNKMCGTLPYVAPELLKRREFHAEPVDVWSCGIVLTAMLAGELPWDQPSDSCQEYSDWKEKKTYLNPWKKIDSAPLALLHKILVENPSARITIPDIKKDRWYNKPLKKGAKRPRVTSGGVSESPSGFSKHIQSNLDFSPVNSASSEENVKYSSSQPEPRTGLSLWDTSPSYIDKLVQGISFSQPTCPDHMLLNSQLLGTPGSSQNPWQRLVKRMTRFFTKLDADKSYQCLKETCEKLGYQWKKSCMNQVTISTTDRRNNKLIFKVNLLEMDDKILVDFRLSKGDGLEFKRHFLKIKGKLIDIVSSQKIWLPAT

Compound | kinase still bound, per cent of control [%]
OCCCNc1cc(-c2ccnc(Nc3cccc(Cl)c3)n2)ccn1 | 100
Cc1ccc2nc(NCCN)c3ncc(C)n3c2c1 | 91
Cc1cc([C@@H](C)Nc2ccccc2C(=O)O)c2nc(N3CCOCC3)cc(=O)n2c1 | 100
CN(C)C/C=C/C(=O)Nc1cccc(Nc2ncc3c(n2)N(C)c2ccccc2C(=O)N3C)c1 | 8.5
O=C(NC1CC1)c1cccc(-c2ccc3c(NC(=O)C4CC4)n[nH]c3c2)c1 | 100
COc1cc(N2CCN(C)CC2)ccc1Nc1nc(N)c(C(=O)c2c(Cl)cccc2Cl)s1 | 79
O=C(O)c1ccc(Nc2ncc3c(n2)-c2ccc(Cl)cc2C(c2c(F)cccc2F)=NC3)cc1 | 91
COc1cc(C(=O)NC2CCN(C)CC2)ccc1Nc1ncc2c(n1)N(C1CCCC1)CCC(=O)N2C(C)C | 100
Nc1ccc(-c2ccc3ncc4ccc(=O)n(-c5cccc(C(F)(F)F)c5)c4c3c2)cn1 | 86
O=C1Nc2ccc(I)cc2/C1=C/c1cc(Br)c(O)c(Br)c1 | 100
CCN1CCN(Cc2ccc(Nc3ncc4c(n3)N(C)c3ccccc3C(=O)N4C)cc2C(F)(F)F)CC1 | 57
COc1cc(C(=O)NC2CCN(C)CC2)ccc1Nc1ncc2c(n1)N(C1CCCC1)C(C)CC(=O)N2C (centres undefined) | 100
C=CC(=O)Nc1cccc(Nc2nc(N[C@H]3CC[C@H](N(C)C)CC3)nc3c2ncn3C(C)C)c1 | 87
Cc1ccc(C(=O)Nc2cccc(C(F)(F)F)c2)cc1Nc1cncc(C(N)=O)c1 | 100
N#Cc1c(NC(=O)c2cccc3ccccc23)sc2c1CCCC2 | 82
C[C@@H](Oc1cc(-n2cnc3ccc(CN4CCN(C)CC4)cc32)sc1C(N)=O)c1ccccc1C(F)(F)F | 100
O=C(NOC[C@H](O)CO)c1ccc(F)c(F)c1Nc1ccc(I)cc1F | 74
C=CC(=O)Nc1cc(NC(=O)c2ccc(C)c(NC(=O)c3ccno3)c2)cc(C(F)(F)F)c1 | 96
CC[C@@H]1C(=O)N(C)c2cnc(Nc3ccc(C(=O)NC4CCN(C)CC4)cc3OC)nc2N1C1CCCC1 | 100
